So I've got a bunch of compounds here, and I need their EC50 values.
# Tested On: human 5-HT4(b) receptor (Homo sapiens, UniProt Q13639)
# Construct: overexpressing the full-length human 5-HT4(b) receptor with an N-terminal FLAG tag; FLAG (N)
# Sequence (Q13639 whole entry): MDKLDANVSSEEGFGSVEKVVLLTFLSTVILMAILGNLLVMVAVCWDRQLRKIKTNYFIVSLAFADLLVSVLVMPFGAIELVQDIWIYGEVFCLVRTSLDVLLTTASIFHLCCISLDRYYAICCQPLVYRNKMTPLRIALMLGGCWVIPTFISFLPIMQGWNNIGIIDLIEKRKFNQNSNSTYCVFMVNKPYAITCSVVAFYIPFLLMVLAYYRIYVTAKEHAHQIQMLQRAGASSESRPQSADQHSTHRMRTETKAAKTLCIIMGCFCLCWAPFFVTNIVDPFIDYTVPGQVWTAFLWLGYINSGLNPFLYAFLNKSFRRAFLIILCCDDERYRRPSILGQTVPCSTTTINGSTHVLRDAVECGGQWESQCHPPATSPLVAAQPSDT
# Protocol: 5-HT4(b) agonist assay (cAMP accumulation)
# Condition Notes: CHO-K1 cells overexpressing full-length human 5-HT4(b) receptor; cAMP accumulation after 30 minutes at room temperature; 1 μM 5-HT as 100% activity
The reply should be a number in nM, with the unit left off.

Notebook: Nc1c(Cl)cc(C(=O)NCC2CCN(CC3CCN(CCCCCCC(=O)NC[C@H](O)[C@@H](O)[C@H](O)[C@H](O)CO)CC3)CC2)c2c1CCO2 [Example 37] , EC50 read as 2

According to the records, this compound COc1cc(N)c(Cl)cc1C(=O)N[C@@H]1CCN(CCCCCC(=O)NCCOCCOCCOCCC(=O)NC[C@H](O)[C@@H](O)[C@H](O)[C@H](O)CO)C[C@@H]1OC [Example 6] displays EC50 of 22.2

// sample COc1cc(N)c(Cl)cc1C(=O)N[C@@H]1CCN(CCCCCC(=O)NCCCC(=O)NC[C@H](O)[C@@H](O)[C@H](O)[C@H](O)CO)C[C@@H]1OC [Example 4] , its EC50 was 28.6

Please fill in: EC50 reported for CO[C@H]1CN(CC2CCN(C(=O)CCCC(=O)NC[C@H](O)[C@@H](O)[C@H](O)[C@H](O)CO)CC2)CC[C@H]1NC(=O)c1cc(Cl)c(N)c2c1OCC2 [Example 43] = 1.7

get_value(item= Nc1c(Cl)cc(C(=O)NCC2CCN(CC3CCN(C(=O)CCCCCCC(=O)NC[C@H](O)[C@@H](O)[C@H](O)[C@H](O)CO)CC3)CC2)c2c1CCO2 [Example 40] , readout=EC50) returns 2
